pKi: −log10 of the molar value.
Field: pKi. System: UniProt:P30935. Provenance: assorted publications.
Sequence (P30935 whole entry): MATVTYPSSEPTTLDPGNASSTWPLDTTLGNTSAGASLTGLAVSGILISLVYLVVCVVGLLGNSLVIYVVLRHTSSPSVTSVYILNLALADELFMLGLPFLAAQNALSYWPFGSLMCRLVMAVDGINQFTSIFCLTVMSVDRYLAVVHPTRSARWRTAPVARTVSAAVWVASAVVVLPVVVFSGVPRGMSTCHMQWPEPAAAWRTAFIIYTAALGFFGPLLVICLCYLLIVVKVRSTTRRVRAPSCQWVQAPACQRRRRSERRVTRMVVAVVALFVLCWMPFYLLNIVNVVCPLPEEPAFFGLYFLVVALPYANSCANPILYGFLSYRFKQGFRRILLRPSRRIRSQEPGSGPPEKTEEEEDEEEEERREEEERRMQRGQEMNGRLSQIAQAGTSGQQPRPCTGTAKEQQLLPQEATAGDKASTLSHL
Metric name: pKi

A selection of reference data follows.
Record smiles: C[C@@H](O)[C@@H]1NC(=O)[C@H](Cc2ccc(O)cc2)NC(=O)[C@H]([C@@H](C)O)NC(=O)[C@H](CCCCN)NC(=O)[C@H](Cc2c[nH]c3ccccc23)NC(=O)[C@H](Cc2ccccc2)NC(=O)[C@H](Cc2ccccc2)NC(=O)[C@H](CC(N)=O)NC(=O)[C@H](CCCCN)NC(=O)CCCCC[C@@H](C(=O)O)NC(=O)[C@H](CO)NC1=O
Metric name: pKi
Recorded result: 9.22
--
Record smiles: CC[C@@H]1NC(=O)[C@H](CCCCN)NC(=O)[C@@H](Cc2c[nH]c3ccccc23)NC(=O)[C@H](Cc2ccc(O)cc2)NC(=O)[C@@H](NC(=O)[C@H](N)Cc2ccccc2)CSSC[C@@H](C(=O)N[C@H](C(N)=O)[C@@H](C)O)NC1=O
Metric name: pKi
Recorded result: 7.87

a: CC(C)[C@@H]1NC(=O)[C@H](CCCCN)NC(=O)[C@@H](Cc2c[nH]c3ccccc23)NC(=O)[C@H](Cc2ccc(O)cc2)NC(=O)[C@H](C)N(C)C(=O)[C@H](Cc2ccccc2)NC1=O
b: C[C@@H](O)[C@H](NC(=O)[C@@H]1CSSC[C@H](NC(=O)[C@H](N)Cc2ccc3ccccc3c2)C(=O)N[C@@H](Cc2ccc(O)cc2)C(=O)N[C@H](Cc2c[nH]c3ccccc23)C(=O)N[C@@H](CCCCN)C(=O)N[C@@H]([C@@H](C)O)C(=O)N1)C(N)=O
Q: Pick the one with the larger pKi: a vs b Which one? Tell me its label.
A: b
(b: 8.15, a: 6.57)
